# experimentalTarget: Tyrosine-protein phosphatase non-receptor type 1 (Homo sapiens)
# Sequence (whole entry): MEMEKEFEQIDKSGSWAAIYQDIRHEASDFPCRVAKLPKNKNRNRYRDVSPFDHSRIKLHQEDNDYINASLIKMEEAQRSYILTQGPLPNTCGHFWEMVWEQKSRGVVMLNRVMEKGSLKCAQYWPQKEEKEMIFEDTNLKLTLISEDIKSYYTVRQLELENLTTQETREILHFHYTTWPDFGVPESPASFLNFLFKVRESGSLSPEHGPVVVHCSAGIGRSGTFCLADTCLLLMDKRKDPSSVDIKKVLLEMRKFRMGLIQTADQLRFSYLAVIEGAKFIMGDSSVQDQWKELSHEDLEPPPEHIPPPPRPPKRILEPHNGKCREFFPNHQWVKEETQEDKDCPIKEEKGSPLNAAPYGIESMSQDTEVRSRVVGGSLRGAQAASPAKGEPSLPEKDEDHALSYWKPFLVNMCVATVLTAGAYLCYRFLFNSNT
# method: Inhibition of PTP1B (unknown origin) assessed as inhibition rate at 100 uM
readoutKind: inhibition (%)
Give bare numbers, in %.

Worked cases, answers included:
O=Cc1nccc2c1[nH]c1ccccc12 :: 9.8
COc1cccc2c1[nH]c1c(CCn3ccc4c5n(c(=O)c(=O)cc3-5)c3ccccc43)ncc(OC)c12 :: 48.5
O=C(O)c1nccc2c1[nH]c1ccccc12 :: 28.5
COCc1c2[nH]c3ccccc3c2cc[n+]1[O-] :: 59
COc1cccc2c1[nH]c1c(CCC(OC)C(=O)c3nccc4c3[nH]c3ccccc34)ncc(OC)c12 (configuration not stated) :: 44.1

Count: 3. Required value per item: inhibition.
1. Cc1c2[nH]c3ccccc3c2cc[n+]1[O-]
2. COC(=O)c1cc2c(cn1)[nH]c1ccccc12
3. COC(=O)C1Cc2c([nH]c3ccccc23)CN1 (configuration not stated)

[A]
1. -3
2. 23
3. 21.3

Count: 4. Required value per item: inhibition.
1. O=c1c(O)cc2nccc3c4ccccc4n1c23
2. CCn1ccc2c3n(c(=O)c(=O)c(OC)c1-3)c1ccccc21
3. CC(=O)c1nccc2c1[nH]c1ccccc12
4. O=C(O)c1cc2c([nH]c3ccccc32)c(-c2cccc3c2OCO3)n1

[A]
1. 84.7
2. 43.6
3. 25.1
4. 19.8

Measured values drawn from ChEMBL document CHEMBL3400011 for this set.
